Just for reference, patent US5462965A is where these values come from.

# experimental target: polyamine domain of the NMDA receptor-complex
# experiment notes: Binding of [125I]ifenprodil to rat cortical membranes (polyamine domain interaction)
# experimental context: rat cortical membranes; mean ± s.e.m., n = 3 or 4; read-out: [125I] IFENPRODIL Kd
Below: a set of entries, each annotated with reported pKd.
pKd (log units): -log10 of the concentration in mol/L.

These recorded examples may help you get a feel for the data.
• CC(C(O)c1ccc2c(c1)CCCS2)N1CCC(Cc2ccccc2)CC1 (stereo not drawn) = 4.92
• CC(NCCCc1ccccc1)C(O)c1ccc2c(c1)CCCS2 (stereo not drawn) = 5.30
• CC(CCc1ccccc1)NC(C)C(O)c1ccc(O)cc1 (stereo not drawn) [Nylidrin, reference compound] = 4.52
• CC(C(O)c1ccc(O)cc1)N1CCC(Cc2ccccc2)CC1 (stereo not drawn) [Ifenprodil, reference compound] = 6.82
• CC(NCCCCc1ccccc1)C(O)c1ccc2c(c1)CCS2 (single isomer, unassigned) [Compound 184] = 5.20
• CC(NCCCCc1ccccc1)C(O)c1ccc2c(c1)CCCS2 (stereo not drawn) = 5.03

Quick note, pKd for CC(CCCc1ccccc1)NC(C)C(O)c1ccc2c(c1)CCCS2 (stereo not drawn) landed at 5.57

Quick note, pKd for CC(NCCCCOc1ccccc1)C(O)c1ccc2c(c1)CCCS2 (stereo not drawn) landed at 5.43

Quick note, pKd for C[C@H](NCCCCc1ccccc1)[C@H](O)c1ccc2c(c1)CCS2 (relative stereo) landed at 5.44

----------
# experimental target: polyamine domain of the NMDA receptor-complex
# experiment notes: Binding of [125I]ifenprodil to rat cortical membranes (polyamine domain interaction)
# experimental context: n=4 (spermine), n=3 (spermidine); read-out: dissociation constants for spermine and spermidine (inhibition of specific [125I]ifenprodil binding)
quantity measured: pKd
pKd (log units): -log10 of the concentration in mol/L.

- NCCCCNCCCN [spermidine, reference compound]: 4.36

Read the next record carefully.
Quick note, pKd for NCCCNCCCCNCCCN [spermine, reference compound] landed at 4.62

----------
# experimental target: sigma site
# experiment notes: Sigma site binding: inhibition of R(+)-[3H]3-PPP binding
# Parameters: species or system rat
# experimental context: two site fit; value in parentheses (exception to better 2 site fit); read-out: KH = Dissociation constant at high affinity site for two site fit
pKd: −log10 of the molar value.
Please mark Yes if the recorded pKd is equal to or greater than 8, and No if it falls below.

Consider the worked cases shown below.
- C[C@H](NCCCCc1ccccc1)[C@@H](O)c1ccc2c(c1)CCS2 (relative stereo): No
- CC(C(O)c1ccc2c(c1)CCS2)N1CCC(Cc2ccccc2)CC1 (centres unmarked): Yes
- CC(NCCCCOc1ccccc1)C(O)c1ccc2c(c1)CCCS2 (centres unmarked): No
- CC(NCCCCc1ccccc1)C(O)c1ccc2c(c1)CCCS2 (centres unmarked): No

Next item in the queue.
Query: Given the entry CC(NCCCCc1ccccc1)C(O)c1ccc2c(c1)CCS2 (single isomer, unassigned) , answer whether its pKd meets or surpasses 8.
Reply: Yes

----------
# experimental target: sigma site
# experiment notes: Sigma site binding: inhibition of R(+)-[3H]3-PPP binding
# Parameters: species or system rat
# experimental context: two site fit, fitted better to 2 site model (P < 0.05); read-out: KH = Dissociation constant at high affinity site for two site fit
# Procedure: Membranes were prepared from freshly dissected brains of adult male Sprague-Dawley rats (175-250 g). […] Binding data were analyzed by the iterative curve fitting programs EBDA and LIGAND as fully described elsewhere [Beart et al, Id., (1989)]. […]
Below: a set of entries, each annotated with reported pKd.
pKd (log units): -log10 of the concentration in mol/L.

* C[C@H](NCCCCc1ccccc1)[C@H](O)c1ccc2c(c1)CCS2 (relative stereo) | 7.36
* C=CCN1CCC2(C)c3cc(O)ccc3CC1C2C (single isomer, unassigned; (+)) [(+)SKF10.047, N-allylnormetazocine, reference compound] | 7.32
* CC(CCc1ccccc1)NC(C)C(O)c1ccc(O)cc1 (centres unmarked) [Nylidrin, reference compound] | 7.72
* CC(NCCCc1ccccc1)C(O)c1ccc2c(c1)CCCS2 (centres unmarked) | 7.07

Quick note, pKd for CC(C(O)c1ccc(O)cc1)N1CCC(Cc2ccccc2)CC1 (centres unmarked) [Ifenprodil, reference compound] landed at 7.96

----------
# experimental target: sigma site
# experiment notes: Sigma site binding: inhibition of R(+)-[3H]3-PPP binding
# Design: species or system rat
# experimental context: one site fit; *one experiment; read-out: KG = Dissociation constant for one site fit
quantity measured: Kd
Hi, when you answer, please include the unit after the number. Thanks!

• CC(NCCCCc1ccccc1)C(O)c1ccc2c(c1)CCCS2 (centres unmarked) = 400 nM

Read the next record carefully.
Quick note, Kd for CC(NCCCCOc1ccccc1)C(O)c1ccc2c(c1)CCCS2 (centres unmarked) landed at 390 nM

----------
# experimental target: polyamine domain of the NMDA receptor-complex
# experiment notes: Binding of [125I]ifenprodil to rat cortical membranes (polyamine domain interaction)
# experimental context: n=3; read-out: dissociation constant of SL82.0715 ([125I]ifenprodil binding)
quantity measured: pKd
pKd (log units): -log10 of the concentration in mol/L.

Quick note, pKd for OC(CN1CCC(Cc2ccc(F)cc2)CC1)c1ccc(Cl)cc1 (stereo not shown) [SL82.0715, reference compound] landed at 5.64

----------
# experimental target: NMDA receptor-ionophore complex (polyamine domain / NMDA ionophore)
# experiment notes: Spermidine (polyamine)-stimulated [3H]TCP binding, functional model of coupling of the polyamine domain to the NMDA ionophore
# experimental context: spermidine-stimulated [3H]TCP binding, rat cortex; at least two independent experiments
quantity measured: pIC50
pIC50 (log units): -log10 of the concentration in mol/L.

These recorded examples may help you get a feel for the data.
* C[C@H](NCCCCc1ccccc1)[C@H](O)c1ccc2c(c1)CCS2 (relative stereo) | 5.09
* CC(NCCCCc1ccccc1)C(O)c1ccc2c(c1)CCS2 (single isomer, unassigned) | 4.23
* CC(CCc1ccccc1)NC(C)C(O)c1ccc(O)cc1 (stereo not shown) [Nylidrin, reference compound] | 4.14

Read the next record carefully.
Record CC(C(O)c1ccc(O)cc1)N1CCC(Cc2ccccc2)CC1 (stereo not shown) [Ifenprodil, reference compound] / NMDA receptor-ionophore complex (polyamine domain / NMDA ionophore), pIC50 recorded as 5.17

----------
Below: a set of entries, each annotated with reported % RH = Percent of high affinity binding sites for two site fit.
# Test system: sigma site
# experiment notes: Sigma site binding: inhibition of R(+)-[3H]3-PPP binding
# Design: species or system rat
# experimental context: two site fit, fitted better to 2 site model (P < 0.05)
Provide the reading as a plain figure in %.

These recorded examples may help you get a feel for the data.
- C=CCN1CCC2(C)c3cc(O)ccc3CC1C2C (single isomer, unassigned; (+)) [(+)SKF10.047, N-allylnormetazocine, reference compound]: 60
- C[C@H](NCCCCc1ccccc1)[C@H](O)c1ccc2c(c1)CCS2 (relative stereo): 66
- CC(NCCCCc1ccccc1)C(O)c1ccc2c(c1)CCS2 (single isomer, unassigned): 54
- CC(CCc1ccccc1)NC(C)C(O)c1ccc(O)cc1 (stereo not drawn) [Nylidrin, reference compound]: 86
- CC(C(O)c1ccc(O)cc1)N1CCC(Cc2ccccc2)CC1 (stereo not drawn) [Ifenprodil, reference compound]: 82

Read the next record carefully.
Record CC(NCCCc1ccccc1)C(O)c1ccc2c(c1)CCCS2 (stereo not drawn) / sigma site, % RH = Percent of high affinity binding sites for two site fit recorded as 67

----------
# experimental target: sigma site
# experiment notes: Sigma site binding: inhibition of R(+)-[3H]3-PPP binding
# Set-up: species or system rat
# experimental context: two site fit; value in parentheses (exception to better 2 site fit); read-out: KL = Dissociation constant at low affinity site for two site fit
quantity measured: pKd
pKd (log units): -log10 of the concentration in mol/L.

These recorded examples may help you get a feel for the data.
* C[C@H](NCCCCc1ccccc1)[C@@H](O)c1ccc2c(c1)CCS2 (relative stereo) | 3.89
* CC(NCCCCc1ccccc1)C(O)c1ccc2c(c1)CCCS2 (centres unmarked) | 5.37
* CC(C(O)c1ccc2c(c1)CCS2)N1CCC(Cc2ccccc2)CC1 (centres unmarked) | 6.22
* CC(NCCCCOc1ccccc1)C(O)c1ccc2c(c1)CCCS2 (centres unmarked) | 5.52

Read the next record carefully.
Quick note, pKd for CC(NCCCCc1ccccc1)C(O)c1ccc2c(c1)CCS2 (single isomer, unassigned) landed at 6.52

----------
# experimental target: sigma site
# experiment notes: Sigma site binding: inhibition of R(+)-[3H]3-PPP binding
# Parameters: species or system rat
# experimental context: two site fit, fitted better to 2 site model (P < 0.05); read-out: KL = Dissociation constant at low affinity site for two site fit
# Procedure: Membranes were prepared from freshly dissected brains of adult male Sprague-Dawley rats (175-250 g). […] Binding data were analyzed by the iterative curve fitting programs EBDA and LIGAND as fully described elsewhere [Beart et al, Id., (1989)]. […]
quantity measured: Kd (µM)
Provide the reading as a plain figure in µM.

• CC(NCCCc1ccccc1)C(O)c1ccc2c(c1)CCCS2 (centres unmarked) = 4.3
• C[C@H](NCCCCc1ccccc1)[C@H](O)c1ccc2c(c1)CCS2 (relative stereo) = 11
• C=CCN1CCC2(C)c3cc(O)ccc3CC1C2C (single isomer, unassigned; (+)) [(+)SKF10.047, N-allylnormetazocine, reference compound] = 6.3
• CC(CCc1ccccc1)NC(C)C(O)c1ccc(O)cc1 (centres unmarked) [Nylidrin, reference compound] = 11

Read the next record carefully.
Quick note, Kd for CC(C(O)c1ccc(O)cc1)N1CCC(Cc2ccccc2)CC1 (centres unmarked) [Ifenprodil, reference compound] landed at 19
